Could you please report measured cAMP assay: EC50 (nM) GIPR for the items listed next?
Target: T1, human GIPR (glucose-dependent insulinotropic polypeptide receptor) (human, UniProt P48546 22-466)
T1 sequence (looked up): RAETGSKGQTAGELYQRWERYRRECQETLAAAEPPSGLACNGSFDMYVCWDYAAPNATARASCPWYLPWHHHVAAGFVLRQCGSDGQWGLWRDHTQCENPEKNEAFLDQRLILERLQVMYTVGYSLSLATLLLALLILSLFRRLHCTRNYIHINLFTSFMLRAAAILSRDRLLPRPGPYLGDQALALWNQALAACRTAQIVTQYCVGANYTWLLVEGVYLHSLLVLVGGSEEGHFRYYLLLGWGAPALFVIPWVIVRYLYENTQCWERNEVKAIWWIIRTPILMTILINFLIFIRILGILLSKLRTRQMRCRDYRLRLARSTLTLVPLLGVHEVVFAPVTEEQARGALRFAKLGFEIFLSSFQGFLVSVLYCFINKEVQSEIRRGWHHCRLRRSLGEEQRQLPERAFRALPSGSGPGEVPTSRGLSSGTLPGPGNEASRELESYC
Assay: cell-based or functional assay
*1 amine or outer side, *2 acyl side, *3 side chain or, on linkers, in order; H or OH if unused. Where no end group is shown, it is not given here. Side-chain parts run from the residue outwards. [ ]: non-standard residue; d: D form. The star is where a group is joined. γGlu = O=C(O)[C@H](CCC(=O)[*:2])N[*:1]; Palmitoyl = CCCCCCCCCCCCCCCC(=O)*; Decanoyl = CCCCCCCCCC(=O)*; Aib = CC(C)(N)C(=O)O
Answers are plain numbers, in nM.

Examples with answers:
BINDER: Palmitoyl-HADGTFISDYSTILDNLAARDFINWLIQTKITKAEWKHAITQ [Compound no. 49]
UNIT: nM
ASSAY RESULT: 2.82

BINDER: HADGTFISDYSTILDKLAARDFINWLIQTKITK(C16 fatty acid) [Compound no. 58]
UNIT: nM
ASSAY RESULT: 1.41

Please supply cAMP assay: EC50 (nM) GIPR for each of the following items, keeping them in order.
1. Palmitoyl-HADGTFISDYSTILDNLAARDFIEWLIQTKITKNDWKHNITQ [Compound no. 50]
2. Palmitoyl-HADGTFISDYSTILDELAARDFINWLIQTKITKNDWKHNITQ [Compound no. 48]
3. H[Aib]DGTFISDYK([γGlu-Decanoyl])T[Aib]LDNLAARDFINWLIQTKITGNDWKHNITQ-OH [Compound no. 54]

0.891
2.82
1.17
